test.system: Peregrin (Homo sapiens) (UniProt P55201)
Sequence (whole entry): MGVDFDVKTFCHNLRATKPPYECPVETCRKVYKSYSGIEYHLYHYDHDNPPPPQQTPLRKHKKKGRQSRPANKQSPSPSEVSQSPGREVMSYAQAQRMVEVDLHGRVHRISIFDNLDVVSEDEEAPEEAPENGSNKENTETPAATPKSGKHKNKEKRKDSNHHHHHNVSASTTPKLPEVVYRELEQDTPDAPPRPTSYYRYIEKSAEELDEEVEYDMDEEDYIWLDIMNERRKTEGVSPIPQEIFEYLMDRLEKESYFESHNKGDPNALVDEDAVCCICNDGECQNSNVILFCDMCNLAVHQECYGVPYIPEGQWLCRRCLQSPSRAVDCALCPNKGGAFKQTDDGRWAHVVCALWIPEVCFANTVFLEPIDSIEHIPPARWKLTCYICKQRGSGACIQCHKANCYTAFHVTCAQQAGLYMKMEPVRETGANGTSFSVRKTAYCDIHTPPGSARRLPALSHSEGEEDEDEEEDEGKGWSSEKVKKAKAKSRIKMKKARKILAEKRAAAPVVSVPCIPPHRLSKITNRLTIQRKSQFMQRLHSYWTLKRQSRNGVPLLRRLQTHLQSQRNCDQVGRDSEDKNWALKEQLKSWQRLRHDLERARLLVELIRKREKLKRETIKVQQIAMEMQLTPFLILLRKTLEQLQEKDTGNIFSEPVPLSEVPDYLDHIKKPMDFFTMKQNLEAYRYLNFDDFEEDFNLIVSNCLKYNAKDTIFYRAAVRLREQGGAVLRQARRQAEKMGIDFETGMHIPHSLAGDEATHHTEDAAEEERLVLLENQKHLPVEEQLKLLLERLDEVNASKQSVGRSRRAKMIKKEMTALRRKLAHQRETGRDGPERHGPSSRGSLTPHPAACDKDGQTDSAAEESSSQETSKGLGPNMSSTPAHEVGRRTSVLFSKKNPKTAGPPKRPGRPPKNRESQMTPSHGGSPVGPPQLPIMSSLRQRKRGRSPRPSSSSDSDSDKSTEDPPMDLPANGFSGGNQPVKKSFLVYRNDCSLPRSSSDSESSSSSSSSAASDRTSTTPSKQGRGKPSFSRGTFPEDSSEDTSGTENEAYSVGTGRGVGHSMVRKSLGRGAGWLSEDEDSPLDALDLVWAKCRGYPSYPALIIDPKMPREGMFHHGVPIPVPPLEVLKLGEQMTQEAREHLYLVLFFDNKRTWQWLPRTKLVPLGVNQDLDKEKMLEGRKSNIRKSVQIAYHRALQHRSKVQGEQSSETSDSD
experimental.parameters: Compound concentration 20.0 uM, Protein concentration 2.0 uM, Result type QC Liability
property.measured: ΔTm (°C)
Numbers only here, please. The scale is °C.

c1ccc2c(-c3coc4cc(-c5ccc(N6CCNCC6)cc5)cnc34)ccnc2c1	-2.26
CC(C)(C)OC(=O)CN1C(=O)c2c(OCC(=O)O)cccc2Oc2ccc(C(F)(F)F)cc21	-3.16
COc1cc2c(NC3CCN(C(C)C)CC3)nc(C3CCCCC3)nc2cc1OCCCN1CCCC1	-0.55
CCN(CC)CCO[C@H]1CC[C@@]2(C)C(=CC[C@@H]3[C@@H]2CC[C@]2(C)C(=O)CC[C@@H]32)C1	-0.77

From here, focus on the item given below.
# ΔTm lookup, item `C=CC[C@@H]1/C=C(\C)C[C@H](C)C[C@H](OC)[C@H]2O[C@@](O)(C(=O)C(=O)N3CCCC[C@H]3C(=O)O[C@H](/C(C)=C/[C@@H]3CC[C@@H](O)[C@H](OC)C3)[C@H](C)[C@@H](O)CC1=O)[C@H](C)C[C@@H]2OC` -3.28
